Target: C-type lectin domain family 4 member K (Homo sapiens, UniProt Q9UJ71)
Sequence (Q9UJ71 whole entry, the tested form may be a part): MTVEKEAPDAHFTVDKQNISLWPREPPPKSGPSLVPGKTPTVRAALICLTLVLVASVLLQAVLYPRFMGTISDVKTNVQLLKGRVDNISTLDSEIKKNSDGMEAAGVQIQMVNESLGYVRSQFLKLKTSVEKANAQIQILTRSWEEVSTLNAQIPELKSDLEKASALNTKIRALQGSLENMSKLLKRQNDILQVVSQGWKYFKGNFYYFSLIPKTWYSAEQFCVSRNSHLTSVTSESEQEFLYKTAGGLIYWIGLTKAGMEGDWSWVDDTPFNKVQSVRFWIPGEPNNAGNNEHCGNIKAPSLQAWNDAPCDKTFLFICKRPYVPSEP
Assay: Inhibition of human Langerin overexpressed in human Raji cells incubated for 30 mins by flow cytometry
pIC50: −log10 of the molar value.
measurement_label: pIC50

The cases that follow already have their pIC50 on record.
# compound, system, measurement_label, reported_result
data = [
    ("O=C(O)c1cccnc1Nc1cccc(C(F)(F)F)c1 [NIFLUMIC ACID]", "C-type lectin domain family 4 member K (Homo sapiens, UniProt Q9UJ71)", "pIC50", 3.23),
    ("Cc1n[nH]c(C)c1Cc1ccc(O)cc1", "C-type lectin domain family 4 member K (Homo sapiens, UniProt Q9UJ71)", "pIC50", 2.99),
    ("CCN1CCN(CC(C)c2ccc(F)cc2)CC1 (stereo unspecified)", "C-type lectin domain family 4 member K (Homo sapiens, UniProt Q9UJ71)", "pIC50", 2.94),
]

a. CCOC(=O)c1sc(=O)[nH]c1C(F)(F)F
b. CCOC(=O)c1cc(C(F)(F)F)n[nH]1
(Q) // which entry reports the smaller pIC50, a or b ? Provide the label of your selected option as the answer.
(A) a
